The reported numbers originate from the supplement of paper PMC11061612.

Test system: MOLT-16 (T-Lymphoblastic Leukemia)
Assay: combination Emax (second highest fraction inhibited in the dose matrix, 72 h); higher = more inhibition; extreme values may be limits of the assay
Outcome Measure: combination Emax
Number only, no unit.

[ask] Look up combination Emax of COc1nnc2ccc(N3CCC(c4ccc(OCCN5CCN(C)C(=O)[C@H]5C)cc4)CC3)nn12 [AZD5153] + C=CCn1c(=O)c2cnc(Nc3ccc(N4CCN(C)CC4)cc3)nc2n1-c1cccc(C(C)(C)O)n1 [AZD1775] (first compound max 1 µM, partner max 1 µM) and report it.
[reply] 1

[ask] Look up combination Emax of COc1cccc2c1C(=O)c1c(O)c3c(c(O)c1C2=O)C[C@@](O)(C(=O)CO)C[C@@H]3O[C@H]1C[C@H](N)[C@H](O)[C@H](C)O1 [Doxorubicin] + Cc1cc2ncnn2cc1Nc1ncc2c(n1)n(C1CCOCC1)c(=O)n2C [AZD7648] (first compound max 1 µM, 7x7, partner max 10 µM) and report it.
[reply] 1

[ask] Look up combination Emax of C=CCn1c(=O)c2cnc(Nc3ccc(N4CCN(C)CC4)cc3)nc2n1-c1cccc(C(C)(C)O)n1 [AZD1775] + C[C@@H]1COCCN1C2=NC(=NC(=C2)C3(CC3)[S@](=N)(=O)C)C4=C5C=CNC5=NC=C4 [AZD6738] (first compound max 1 µM, partner max 10 µM) and report it.
[reply] 1

[ask] Look up combination Emax of CN(C)CCCOc1ccc(-c2ccc3ncc4c(c3c2)n(C2CCOCC2)c(=O)n4C)cn1 [AZD0156] + O=C(c1cc(Cc2n[nH]c(=O)c3ccccc23)ccc1F)N1CCN(C(=O)C2CC2)CC1 [Olaparib] (first compound max 3 µM, partner max 3 µM) and report it.
[reply] 0.914

[ask] Look up combination Emax of CCN(CCO)CCCOc1ccc2c(Nc3cc(CC(=O)Nc4cccc(F)c4)[nH]n3)ncnc2c1 [AZD2811] + C[C@@H]1COCCN1C2=NC(=NC(=C2)C3(CC3)[S@](=N)(=O)C)C4=C5C=CNC5=NC=C4 [AZD6738] (first compound max 1 µM, 7x7, partner max 10 µM) and report it.
[reply] 1

[ask] Look up combination Emax of CC1(C)CCC(CN2CCN(c3ccc(C(=O)NS(=O)(=O)c4ccc(NCC5CCOCC5)c([N+](=O)[O-])c4)c(Oc4cnc5[nH]ccc5c4)c3)CC2)=C(c2ccc(Cl)cc2)C1 [Venetoclax] + C[C@@H]1COCCN1C2=NC(=NC(=C2)C3(CC3)[S@](=N)(=O)C)C4=C5C=CNC5=NC=C4 [AZD6738] (first compound max 1 µM, 7x7, partner max 10 µM) and report it.
[reply] 1

[ask] Look up combination Emax of CN(CCO)CC[C@H](CSc1ccccc1)Nc1ccc(S(=O)(=O)NC(=O)c2ccc(N3CCC([C@@H](O)c4ccccc4-c4ccc(Cl)cc4)CC3)cc2)cc1S(=O)(=O)C(F)(F)F [AZD4320] + CCN(CCO)CCCOc1ccc2c(Nc3cc(CC(=O)Nc4cccc(F)c4)[nH]n3)ncnc2c1 [AZD2811] (first compound max 1 µM, 7x7, partner max 1 µM) and report it.
[reply] 1

[ask] Look up combination Emax of COc1nnc2ccc(N3CCC(c4ccc(OCCN5CCN(C)C(=O)[C@H]5C)cc4)CC3)nn12 [AZD5153] + C[C@@H]1COCCN1C2=NC(=NC(=C2)C3(CC3)[S@](=N)(=O)C)C4=C5C=CNC5=NC=C4 [AZD6738] (first compound max 1 µM, 7x7, partner max 10 µM) and report it.
[reply] 1

[ask] Look up combination Emax of NC1(C(=O)N[C@@H](CCO)c2ccc(Cl)cc2)CCN(c2ncnc3[nH]ccc23)CC1 [Capivasertib] + CC(C)n1c(=O)n(C)c2cnc3cc(F)c(-c4ccc(OCCCN5CCCCC5)nc4)cc3c21 [AZD1390] (first compound max 10 µM, 7x7, partner max 0.3 µM) and report it.
[reply] 0.719

[ask] Look up combination Emax of Cn1cnc2c(F)c(Nc3ccc(Br)cc3Cl)c(C(=O)NOCCO)cc21 [Selumetinib] + C=CCn1c(=O)c2cnc(Nc3ccc(N4CCN(C)CC4)cc3)nc2n1-c1cccc(C(C)(C)O)n1 [AZD1775] (first compound max 10 µM, partner max 1 µM) and report it.
[reply] 1

[ask] Look up combination Emax of CS(=O)(=O)CCNCc1ccc(-c2ccc3ncnc(Nc4ccc(OCc5cccc(F)c5)c(Cl)c4)c3c2)o1 [Lapatinib] + C[C@@H](Oc1cc(-c2cnn(C3CCNCC3)c2)cnc1N)c1c(Cl)ccc(F)c1Cl [Crizotinib] (first compound max 10 µM, 7x7, partner max 10 µM) and report it.
[reply] 0.992

[ask] Look up combination Emax of NC1(C(=O)N[C@@H](CCO)c2ccc(Cl)cc2)CCN(c2ncnc3[nH]ccc23)CC1 [Capivasertib] + COc1nnc2ccc(N3CCC(c4ccc(OCCN5CCN(C)C(=O)[C@H]5C)cc4)CC3)nn12 [AZD5153] (first compound max 10 µM, 7x7, partner max 1 µM) and report it.
[reply] 1

[ask] Look up combination Emax of COc1cc2c(cc1OCCCCCOc1cc3c(cc1OC)C(=O)N1C=C(C)C[C@H]1C=N3)N=C[C@@H]1CC(C)=CN1C2=O [SG3199] + O=C(c1cc(Cc2n[nH]c(=O)c3ccccc23)ccc1F)N1CCN(C(=O)C2CC2)CC1 [Olaparib] (first compound max 0.001 µM, 7x7, partner max 10 µM) and report it.
[reply] 0.659

====

System: MS751 (Cervical Carcinoma);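 also: after 72 h of two-drug dosing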
Test: Bliss excess, mean over the matrix (fraction); higher = more synergy
Outcome Measure: Bliss excess
Number only, no unit.

[ask] Provide measured Bliss excess on MS751 (Cervical Carcinoma) for C[C@@H](c1ccc2nccn2c1)n1nnc2ncc(-c3cnn(C)c3)nc21 [Savolitinib] + CN(CC[C@H](CSC1=CC=CC=C1)NC2=C(C=C(C=C2)S(=O)(=O)NC(=O)C3=CC=C(C=C3)N4CCC(CC4)[C@H](C5=CC=CC=C5C6=CC=C(C=C6)Cl)O)S(=O)(=O)C(F)(F)F)CCO [AZD4320] (first compound max 1 µM, 7x7, partner max 1 µM) please.
[reply] 0.0315

[ask] Provide measured Bliss excess on MS751 (Cervical Carcinoma) for NC1(C(=O)N[C@@H](CCO)c2ccc(Cl)cc2)CCN(c2ncnc3[nH]ccc23)CC1 [Capivasertib] + Cn1cnc2c(F)c(Nc3ccc(Br)cc3Cl)c(C(=O)NOCCO)cc21 [Selumetinib] (first compound max 10 µM, 7x7, partner max 10 µM) please.
[reply] 0.0024

[ask] Provide measured Bliss excess on MS751 (Cervical Carcinoma) for Cc1c2c(nn1C)CSCc1cc(n(C)n1)CSc1cc(c3ccccc3c1)OCCCc1c(C(=O)O)n(C)c3c-2c(Cl)ccc13 [AZD5991] + Cc1cc2ncnn2cc1Nc1ncc2c(n1)n(C1CCOCC1)c(=O)n2C [AZD7648] (first compound max 1 µM, 7x7, partner max 10 µM) please.
[reply] -0.0396

[ask] Provide measured Bliss excess on MS751 (Cervical Carcinoma) for CC(=O)c1c(C)c2cnc(Nc3ccc(N4CCNCC4)cn3)nc2n(C2CCCC2)c1=O [Palbociclib] + Cn1cnc2c(F)c(Nc3ccc(Br)cc3Cl)c(C(=O)NOCCO)cc21 [Selumetinib] (first compound max 10 µM, 7x7, partner max 10 µM) please.
[reply] -0.0445

====

Tested on: WIL2-NS (Non-Cancerous)
Test: combination Emax (second highest fraction inhibited in the dose matrix, 72 h); higher = more inhibition; extreme values may be limits of the assay
Can you tell me combination Emax for the items I'm about to list?
Number only, no unit.

[ask] Provide measured combination Emax on WIL2-NS (Non-Cancerous) for CCN(CCO)CCCOc1ccc2c(Nc3cc(CC(=O)Nc4cccc(F)c4)[nH]n3)ncnc2c1 [AZD2811] + C[C@@H]1COCCN1C2=NC(=NC(=C2)C3(CC3)[S@](=N)(=O)C)C4=C5C=CNC5=NC=C4 [AZD6738] (first compound max 1 µM, 7x7, partner max 10 µM) please.
[reply] 0.979

[ask] Provide measured combination Emax on WIL2-NS (Non-Cancerous) for Cc1cc2ncnn2cc1Nc1ncc2c(n1)n(C1CCOCC1)c(=O)n2C [AZD7648] + COc1cc([C@@H]2c3cc4c(cc3[C@@H](O[C@@H]3O[C@@H]5CO[C@@H](C)O[C@H]5[C@H](O)[C@H]3O)[C@H]3COC(=O)[C@H]23)OCO4)cc(OC)c1O [Etoposide] (first compound max 10 µM, 7x7, partner max 10 µM) please.
[reply] 0.981

[ask] Provide measured combination Emax on WIL2-NS (Non-Cancerous) for NC1(C(=O)N[C@@H](CCO)c2ccc(Cl)cc2)CCN(c2ncnc3[nH]ccc23)CC1 [Capivasertib] + COc1nnc2ccc(N3CCC(c4ccc(OCCN5CCN(C)C(=O)[C@H]5C)cc4)CC3)nn12 [AZD5153] (first compound max 10 µM, 7x7, partner max 1 µM) please.
[reply] 0.848

[ask] Provide measured combination Emax on WIL2-NS (Non-Cancerous) for C=CCn1c(=O)c2cnc(Nc3ccc(N4CCN(C)CC4)cc3)nc2n1-c1cccc(C(C)(C)O)n1 [AZD1775] + CCc1c2c(nc3ccc(O)cc13)-c1cc3c(c(=O)n1C2)COC(=O)[C@]3(O)CC [SN-38] (first compound max 1 µM, partner max 0.3 µM) please.
[reply] 0.961

[ask] Provide measured combination Emax on WIL2-NS (Non-Cancerous) for CS(=O)(=O)CCNCc1ccc(-c2ccc3ncnc(Nc4ccc(OCc5cccc(F)c5)c(Cl)c4)c3c2)o1 [Lapatinib] + Cn1cnc2c(F)c(Nc3ccc(Br)cc3Cl)c(C(=O)NOCCO)cc21 [Selumetinib] (first compound max 10 µM, 7x7, partner max 10 µM) please.
[reply] 0.321

[ask] Provide measured combination Emax on WIL2-NS (Non-Cancerous) for C[C@@H](Oc1cc(-c2cnn(C3CCNCC3)c2)cnc1N)c1c(Cl)ccc(F)c1Cl [Crizotinib] + CC1=C(C(=CC=C1)Cl)NC(=O)C2=CN=C(S2)NC3=CC(=NC(=N3)C)N4CCN(CC4)CCO [Dasatinib] (first compound max 10 µM, 7x7, partner max 2 µM) please.
[reply] 0.635

[ask] Provide measured combination Emax on WIL2-NS (Non-Cancerous) for CN(CCO)CC[C@H](CSc1ccccc1)Nc1ccc(S(=O)(=O)NC(=O)c2ccc(N3CCC([C@@H](O)c4ccccc4-c4ccc(Cl)cc4)CC3)cc2)cc1S(=O)(=O)C(F)(F)F [AZD4320] + Cn1cnc2c(F)c(Nc3ccc(Br)cc3Cl)c(C(=O)NOCCO)cc21 [Selumetinib] (first compound max 1 µM, 7x7, partner max 3 µM) please.
[reply] 0.633
